Measured values drawn from PubChem BioAssay (NCI) for this set.

- Test system: SK-MEL-28 melanoma
- assay_comment: NCI tumour cell line growth inhibition, 48 h
outcome_measure: TGI

Here are 2 compounds together with their reported answers.
compound: OC[C@@H](O)[C@H]1NC[C@@H](O)[C@H]1O
target_of_assay: SK-MEL-28 melanoma
TGI: > 100 µM

compound: COc1cc(OCc2ccc3oc(=O)c(-c4ccccc4)nc3c2)cc(OC)c1OC
target_of_assay: SK-MEL-28 melanoma
TGI: > 100 µM

Turning to the following compound.
For COc1cc(/C=C/C(=O)O)ccc1C(=O)O/C=C/c1ccccc1 the compound record lists TGI as > 100 µM

* * *

- System: UACC-62 melanoma
- assay_comment: NCI tumour cell line growth inhibition, 48 h
Here the recorded TGI is given for each entry.

Here are 5 compounds together with their reported answers.
compound: O=c1cc(/C=C/c2ccc(O)c(O)c2)oc(/C=C/c2ccc(O)c(O)c2)c1
TGI: 6.43 µM

compound: Nn1c(CCCCCCCCc2nnc(COc3c(O)ccc4ccccc34)n2N)nnc1COc1c(O)ccc2ccccc12
TGI: > 100 µM

compound: CC1CCCCc2nc3c(c(=O)n21)CCCC3 (configuration not stated)
TGI: > 100 µM

compound: CCNC(=O)Nc1ccccn1
TGI: > 100 µM

compound: C[C@H](Nc1ncnc2nc[nH]c12)c1cc2cccc(Cl)c2c(=O)n1-c1ccccc1
TGI: > 100 µM

Turning to the following compound.
For Cc1ccc(S(=O)(=O)N2CCSCCSCCSCCSCC2)cc1 the compound record lists TGI as 38.1 µM

* * *

Here the recorded TGI is given for each entry.
- Tested on: MCF7 breast
- assay_comment: NCI tumour cell line growth inhibition, 48 h

compound: C[C@@H](C(=O)Nc1ccc(Cl)cc1)C1CCC(c2ccnc3ccc(F)cc23)CC1 (stereo not given in full)
TGI: 97.5 µM
//
compound: CCOC(=O)c1[nH]cc(C)c1-c1ccn(-c2ccccc2)c1
TGI: > 100 µM
//
compound: CC1(C)SC2C(NC(=O)C(N)c3ccccc3)C(=O)N2C1C(=O)O (stereo not given)
TGI: > 100 µM

For Cc1cc(C)c2c(=O)n(CN3CC4Nc5ccccc5C4C3)sc2n1 (stereo not given) the compound record lists TGI as > 100 µM

For CCN1C(=O)N(CC)C2C1NN=c1s/c(=C\c3cccnc3)c(=O)n12 (stereo not given) the compound record lists TGI as > 100 µM

For C=C(Cl)/C(=C\Cl)CCC(Br)C(C)C (stereo not given) the compound record lists TGI as > 100 µM

For CC(CC(C#N)(c1ccccc1)c1ccccc1)N1CCCCC1 (stereo not given) the compound record lists TGI as 74.7 µM

For C/C(=C\c1ccccc1)C(=O)CCN1CCOCC1 the compound record lists TGI as 20.9 µM

For COc1cccc(/C=C/C(=O)c2cccc(Nc3nc(Nc4ccccc4)nc(Nc4ccccc4)n3)c2)c1 the compound record lists TGI as 6.91 µM

For O=C1c2ccccc2-c2c1c1ccccc1c(=O)n2CCCNCCCNCCCn1c2c(c3ccccc3c1=O)C(=O)c1ccccc1-2 the compound record lists TGI as 0.18 µM

* * *

- Test system: SW-620 colon
- assay_comment: NCI tumour cell line growth inhibition, 48 h; in the data active = GI50 below about 0.43 µM; inactive = the rest
Give one outcome, nothing more. List: active, inactive

Record excerpt, results attached:
compound: Cc1c(C(=O)/C=C/c2csc3ccccc23)[n+](=O)c2ccccc2n1[O-]
target_of_assay: SW-620 colon
group: inactive
--
compound: COc1ccc2c(CCCC(c3ccccc3)c3ccccc3)c3[n+](cc2c1OC)CCc1cc2c(cc1-3)OCO2
target_of_assay: SW-620 colon
group: active
--
compound: CCN(CC)c1ccc(C(=C2C=CC(=[N+](CC)Cc3cccc(S(=O)(=O)O)c3)C=C2)c2ccc(N(CC)Cc3cccc(S(=O)(=O)O)c3)cc2)cc1
target_of_assay: SW-620 colon
group: inactive
--
compound: COC(=O)[C@@H](C)C[C@H](Cc1ccccc1)NC(=O)c1nc([C@@H](C[C@H](C(C)C)N(C)C(=O)[C@@H](NC(=O)[C@H]2CCCCN2C)C(C)C)OC(C)=O)sc1C
target_of_assay: SW-620 colon
group: active

Prompt line: // param item: COc1ccc(-c2ccc(/C=N/n3c(COc4ccc(Cl)cc4Cl)n[nH]c3=S)o2)c([N+](=O)[O-])c1 ; yields the recorded call
Response line: inactive

Prompt line: // param item: CCCCCCCCCC[C@H](O)[C@H]1CC[C@H]([C@H]2CC[C@H]([C@H](O)CC[C@H](O)CCCCCCC[C@@H](O)CC3=C[C@H](C)OC3=O)O2)O1 ; yields the recorded call
Response line: inactive

Prompt line: // param item: Nc1cc2cccc[n+]2c2cc(Cl)ccc12 ; yields the recorded call
Response line: inactive

Prompt line: // param item: CCCCCn1c(=N)n(CC(O)COc2cccc(C)c2)c2ccccc21 (stereo not drawn) ; yields the recorded call
Response line: inactive
